Reference source: PubChem BioAssay (NCATS)

testName: Viability qHTS for spleen associated tyrosine kinase inhibitor (SYKi) drug resistant MV4-11 cells (AID 1963824); further: nearly all actives have a fitted effect of over 35% in size
conditionParameters: SYKi-resistant MV4-11 viability, CellTiter-Glo, 72 h; series mostly up to 45 µM
Method: Department of Medicine, Hematology/Oncology University Hospital Frankfurt, Germany. Trials have shown promising clinical activity of the selective SYK inhibitor entospletinib in patients with high expressing HOXA9/MEIS1 acute leukemias. […] 7; Detection; Luminescence; ViewLux plate reader (PerkinElmer). […] 1. Quantitative high-throughput screening (qHTS) of small molecule compounds was conducted on drug resistant SYKi MV4-11 cell line. […] 7. Luminescence was measured on a ViewLux plate reader (PerkinElmer).
Inconclusive results are not listed. Active and inactive are the calls of the source. The call rests on the fitted dose curve; in most records, active means well fitted cell-killing curve with a large enough effect; inconclusive means small, poorly fitted or top-dose-only effect, or effect the other way; inactive means no such curve, though single readings can be large or run the other way.
Would you mind answering with one of these outcomes? true (1) = active, false (0) = inactive

Here's what some known entries look like.
C[C@@H]1O[C@@H](OC[C@H]2O[C@@H](Oc3cc(O)cc4c3C(=O)C(O)(Cc3ccc(O)cc3)O4)[C@H](O)[C@@H](O)[C@@H]2O)[C@H](O)[C@H](O)[C@H]1O (stereo partly specified)	false (0)
CCc1cc(C(N)=S)ccn1	false (0)
CC/C(=C(/CC)c1ccc(O)cc1)c1ccc(O)cc1	true (1)
Cc1nc(NC(=O)N2CCC[C@H]2C(N)=O)sc1-c1csc(C(C)(C)C)n1	true (1)
CCCC(Nc1nc(-c2ccc(NC(=O)NCC)c(OC)c2)ncc1C)c1cccnc1 (stereo unspecified)	true (1)

Please turn your attention to the following entry.
Q: Test call, this compound: `CN(C)C/C=C/C(=O)Nc1ccc(C(=O)N2CCC[C@@H](Nc3ncc(Cl)c(-c4c[nH]c5ccccc45)n3)C2)cc1`
Result: true (1)
